pEC50 for assorted compounds
Tested on: Poliovirus 3
EXPERIMENTAL PROTOCOL: Antiviral activity against human poliovirus 3 infected in human HeLa cells assessed as reduction in virus-induced cytopathicity incubated for 3 days by MTT assay
Assay type: functional, cell-based
APPLIED CONDITIONS: Enterovirus C, 72 h
pEC50: −log10 of the molar value.

// solved cases for pEC50 follow
- COMPOUND: "CC(C)(C)C1CCc2c(sc3c2c(=O)n(-c2ccccc2)c2nnc(N)n32)C1 (stereo not given)"
  TEST TARGET: "Poliovirus 3"
  ASSAY READOUT: "pEC50"
  READING: "< 4.34"
- COMPOUND: "CC1(C)Cc2c(sc3c2c(=O)n(-c2ccccc2)c2nncn32)C(C)(C)C1"
  TEST TARGET: "Poliovirus 3"
  ASSAY READOUT: "pEC50"
  READING: "< 5.04"
- COMPOUND: "CC(C)(C)C1CCc2c(sc3c2c(=O)n(-c2ccc(C(F)(F)F)cc2)c2nncn32)C1 (stereo not given)"
  TEST TARGET: "Poliovirus 3"
  ASSAY READOUT: "pEC50"
  READING: "< 4.45"

Param readout= pEC50; system= Poliovirus 3; entry= CC1(C)CCc2c(sc3c2c(=O)n(-c2ccccc2)c2nncn32)C1 ; returns value.
< 4.26

Likewise for O=c1c2c3c(sc2n2cnnc2n1-c1ccccc1)CC(c1ccccc1)CC3 (stereo not given) ?
< 4.56

Likewise for Cc1nnc2n(-c3ccccc3)c(=O)c3c4c(sc3n12)CC(C(C)(C)C)CC4 (stereo not given) ?
< 4.35

Likewise for CC1CCCc2sc3c(c21)c(=O)n(-c1ccccc1)c1nncn31 (stereo not given) ?
< 4.00

Likewise for O=c1c2c3c(sc2n2cnnc2n1-c1ccccc1)CCCC3 ?
< 4.00

Likewise for CC1CCc2c(sc3c2c(=O)n(-c2ccccc2)c2nncn32)C1 (stereo not given) ?
< 4.10

Likewise for CC(C)(C)C1CCc2c(sc3c2c(=O)n(-c2ccccc2)c2nnc(S)n32)C1 (stereo not given) ?
< 4.35

====

EXPERIMENTAL PROTOCOL: Cytotoxicity in human HeLa cells assessed as reduction in cell viability incubated for 3 days by MTT assay
Type: cell-based
CC50 at 72 h for assorted compounds
The answer is to be given in µM; state only the numeric part.

- COMPOUND: "CC1(C)CCc2c(sc3c2c(=O)n(-c2ccccc2)c2nncn32)C1"
  CC50 at 72 h, µM: 54.8
- COMPOUND: "COc1ccc(-n2c(=O)c3c4c(sc3n3cnnc23)CC(C(C)(C)C)CC4)cc1 (stereo not drawn)"
  CC50 at 72 h, µM: 39.1
- COMPOUND: "CC1(C)Cc2c(sc3c2c(=O)n(-c2ccccc2)c2nncn32)C(C)(C)C1"
  CC50 at 72 h, µM: 9.09
- COMPOUND: "Cc1ccc(-n2c(=O)c3c4c(sc3n3cnnc23)CC(C(C)(C)C)CC4)cc1 (stereo not drawn)"
  CC50 at 72 h, µM: 32.8
- COMPOUND: "CC(C)(C)C1CCc2c(sc3c2c(=O)n(-c2ccccc2Cl)c2nncn32)C1 (stereo not drawn)"
  CC50 at 72 h, µM: 26.3

Which CC50 at 72 h is listed for CC(C)(C)C1CCc2c(sc3c2c(=O)n(-c2ccccc2)c2nnc(S)n32)C1 (stereo not drawn) ?
45.1

Likewise for CCCC1CCc2c(sc3c2c(=O)n(-c2ccccc2)c2nncn32)C1 (stereo not drawn) ?
41
